Data origin, for the record: the supplement of paper PMC8960247

# Test system: 621-102 (TSC2-deficient)
# ASSAY: relative viability vs DMSO; higher = less cytotoxic;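 also: immortalized renal angiomyolipoma cells stably carrying empty vector or TSC2, dosed in 384-well plates in DMEM, viability normalized to vehicle-treated wells within each plate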
# CONDITION DESCRIPTION: 0.01 µM; serum: 10% FBS; 72 h
PROPERTY LABEL: relative viability (%)
API: value field is a number in %; no unit string.

COMPOUND	ENDPOINT VALUE
C#Cc1cccc(Nc2ncnc3cc(OCCOC)c(OCCOC)cc23)c1	108

Next compound, please.
COc1cc2c(cc1Cc1cccc(Cl)c1F)c(=O)c(C(=O)O)cn2[C@H](CO)C(C)C yielded relative viability of 105

----------
# System: 621-103 (TSC2-rescued)
# ASSAY: relative viability vs DMSO; higher = less cytotoxic
# CONDITION DESCRIPTION: 10 µM; serum: 10% FBS; 72 h
Catalogue of relative viability values
Number only, in %; omit the unit.

COMPOUND	ENDPOINT VALUE
N#CC(=C(/N)Sc1ccccc1N)/C(C#N)=C(\N)Sc1ccccc1N	90.4
Cn1c(CNc2ccc(C(=N)N)cc2)nc2cc(C(=O)N(CCC(=O)O)c3ccccn3)ccc21	91.3

Observed relative viability, 621-103 (TSC2-rescued), Cn1cnc2c(F)c(Nc3ccc(Br)cc3Cl)c(C(=O)NOCCO)cc21 [AZD6244 (Selumetinib)] : 89

Item CC(=O)Nc1ccccc1 [Acetanilide] ; assay system 621-103 (TSC2-rescued); relative viability reported as 91.3

----------
# Tested on: 621-103 (TSC2-rescued)
# ASSAY: relative viability vs DMSO; higher = less cytotoxic
# CONDITION DESCRIPTION: 10 µM; serum: 10% FBS; 72 h
Structures can show the parent of a compound that is named as a salt.
Items are presented alongside their recorded relative viability.
Supply the numeric figure in %, leaving out any unit text.

COMPOUND	STUDY SYSTEM	relative viability (%)
C[C@H](Cn1cnc2c(N)ncnc21)OCP(=O)(O)O	621-103 (TSC2-rescued)	92.6
O=C(c1ccc(F)cc1)C1CCN(CCn2c(=O)[nH]c3ccccc3c2=O)CC1	621-103 (TSC2-rescued)	96.3

The measured relative viability that CN1CC[C@H](c2c(O)cc(O)c3c(=O)cc(-c4ccccc4Cl)oc23)[C@H](O)C1 showed for 621-103 (TSC2-rescued) is 21.8

Hey, 621-103 (TSC2-rescued) data for COc1ccc(-c2cc3c(C)nc(N)nc3n([C@H]3CC[C@H](OCCO)CC3)c2=O)cn1 : relative viability came out at 18.6

Per the reported 621-103 (TSC2-rescued) data, CC(C)c1nc(CN(C)C(=O)N[C@H](C(=O)N[C@@H](Cc2ccccc2)C[C@H](O)[C@H](Cc2ccccc2)NC(=O)OCc2cncs2)C(C)C)cs1 has relative viability of 98.3

# relative viability measured on 621-103 (TSC2-rescued) for item CN(C)Cc1cccc(N/C(=C2\C(=O)Nc3cc(C(N)=O)ccc32)c2ccccc2)c1 = 84.9

// assay 621-103 (TSC2-rescued), entry Cc1csc(-c2nnc(Nc3ccc(Oc4ncccc4-c4ccnc(N)n4)cc3)c3ccccc23)c1 , relative viability value = 73.6

The compound c1cncc(CN2CCC(n3ncc4c(N5CCOCC5)nc(-c5ccc6[nH]ccc6c5)nc43)CC2)c1 , when measured on 621-103 (TSC2-rescued), yielded relative viability of 7.78

Test item CCCc1nc2c(C)cc(-c3nc4ccccc4n3C)cc2n1Cc1ccc(-c2ccccc2C(=O)O)cc1 ; 621-103 (TSC2-rescued); reported relative viability was 107

Bench note, 621-103 (TSC2-rescued): COc1cc2nc(N3CCN(C(=O)C4COc5ccccc5O4)CC3)nc(N)c2cc1OC (stereo not given) [Doxazosin mesylate] , relative viability reads 88.3

Sample Cc1cc(Nc2cc(CN3CCOCC3)c3nc(C)c(Cc4ccc(Cl)cc4F)n3n2)n[nH]1 , system: 621-103 (TSC2-rescued). Its relative viability is 8.52

621-103 (TSC2-rescued) data for O=C1NC(=O)/C(=C/c2ccc3c(c2)OC(F)(F)O3)S1 ; its relative viability: 88.5

Item CC(C)C[C@H](NC(=O)CNC(=O)c1cc(Cl)ccc1Cl)B1OC(=O)C(CC(=O)O)(CC(=O)O)O1 was tested on 621-103 (TSC2-rescued); the reported relative viability is 0.886

# lookup: CCN1CCN(Cc2ccc(-c3cc4c(N[C@H](C)c5ccccc5)ncnc4[nH]3)cc2)CC1 on 621-103 (TSC2-rescued), relative viability = 10.7

Reading of relative viability for Cc1cc(C(C)(C)C)c(O)c(C)c1CC1=NCCN1 [Oxymetazoline HCl] with 621-103 (TSC2-rescued): 98.8

Entry Nc1cc(C(Cl)=C(Cl)Cl)c(S(N)(=O)=O)cc1S(N)(=O)=O , 621-103 (TSC2-rescued) data, relative viability value: 79.6

Measured on 621-103 (TSC2-rescued), Nc1nccc(Oc2ccc(NC(=O)c3c[nH]cc(-c4ccc(F)cc4)c3=O)cc2F)c1Cl has a documented relative viability of 98.1

With 621-103 (TSC2-rescued) as the test system, CCOc1cc2ncc(C#N)c(Nc3ccc(OCc4ccccn4)c(Cl)c3)c2cc1NC(=O)/C=C/CN(C)C showed relative viability of 41.1

Entry CCOC(=O)C1=C(COCCN)NC(C)=C(C(=O)OC)C1c1ccccc1Cl (stereo not given) [Amlodipine besylate] under 621-103 (TSC2-rescued) had relative viability of 57.2

Readout relative viability for O=C(c1ccc(/C=C/c2n[nH]c3ccccc23)cc1)N1CCNCC1 , test system 621-103 (TSC2-rescued), was 15.1

// relative viability (621-103 (TSC2-rescued)) for OCCn1cc(-c2cnc3nnn(Cc4ccc5ncccc5c4)c3n2)cn1 = 99.7

// compound NC(=O)N1c2ccccc2C=Cc2ccccc21 [Carbamazepine (Carbatrol)] , assay 621-103 (TSC2-rescued), relative viability value: 98.9

Measured relative viability (621-103 (TSC2-rescued)), entry N#Cc1ccc(C(c2ccc(C#N)cc2)n2cncn2)cc1 : 101

# CC1=C2C[C@H]3[C@@H](CC=C4C[C@@H](O)CC[C@@]43C)[C@@H]2CC[C@]12O[C@@H]1C[C@H](C)CN[C@H]1[C@H]2C with 621-103 (TSC2-rescued): relative viability is 98.9

Param item: COc1ccc(S(=O)(=O)N(C(C)=O)c2ccccc2/C=C/c2cc[n+]([O-])cc2)cc1 ; param system: 621-103 (TSC2-rescued); output relative viability: 39.5
